Tested on: KRAS-mutant PDC multicell tumor spheroid viability;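 note: viability read after seven days of drug exposure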
Experiment: Anticancer human tumor 521955-158-R2-J5-PDC patient-derived pancreatic carcinoma cell line growth inhibition [KRAS2]
Settings: second compound 0.316 µM; first compound 0.0316 µM; stronger effect = lower value
A collection of compounds and their measured viability, T/C

{"compound": "CC1(C)CCC(CN2CCN(c3ccc(C(=O)NS(=O)(=O)c4ccc(NCC5CCOCC5)c([N+](=O)[O-])c4)c(Oc4cnc5[nH]ccc5c4)c3)CC2)=C(c2ccc(Cl)cc2)C1 + C=CC(=O)N1CCN(c2nc(=O)n(-c3c(C)ccnc3C(C)C)c3nc(-c4c(O)cccc4F)c(F)cc23)C(C)C1", "target-or-test-system": "KRAS-mutant PDC multicell tumor spheroid viability", "viability, T/C [%]": 96}
{"compound": "CC(=O)Nc1cccc(-n2c(=O)n(C3CC3)c(=O)c3c(Nc4ccc(I)cc4F)n(C)c(=O)c(C)c32)c1 + CNCc1ccccc1-c1csc(C(C)Nc2nc(C)nc3cc(OC)c(OC)cc23)c1", "target-or-test-system": "KRAS-mutant PDC multicell tumor spheroid viability", "viability, T/C [%]": 14.1}
{"compound": "CC1(C)CCC(CN2CCN(c3ccc(C(=O)NS(=O)(=O)c4ccc(NCC5CCOCC5)c([N+](=O)[O-])c4)c(Oc4cnc5[nH]ccc5c4)c3)CC2)=C(c2ccc(Cl)cc2)C1 + CC1OCC2(CCN(c3cnc(Sc4ccnc(N)c4Cl)c(N)n3)CC2)C1N", "target-or-test-system": "KRAS-mutant PDC multicell tumor spheroid viability", "viability, T/C [%]": 62.2}
{"compound": "CC(=O)OC12COC1CC(O)C1(C)C(=O)C(O)C3=C(C)C(OC(=O)C(O)C(NC(=O)OC(C)(C)C)c4ccccc4)CC(O)(C(OC(=O)c4ccccc4)C21)C3(C)C (stereo not drawn) + C=CC(=O)N1CCN(c2nc(OCC3CCCN3C)nc3c2CCN(c2cccc4cccc(C)c24)C3)CC1CC#N", "target-or-test-system": "KRAS-mutant PDC multicell tumor spheroid viability", "viability, T/C [%]": 10}
{"compound": "Cn1ncnc1[C@H]1c2n[nH]c(=O)c3cc(F)cc(c23)N[C@@H]1c1ccc(F)cc1 + C=CC(=O)N1CCN(c2nc(=O)n(-c3c(C)ccnc3C(C)C)c3nc(-c4c(O)cccc4F)c(F)cc23)C(C)C1", "target-or-test-system": "KRAS-mutant PDC multicell tumor spheroid viability", "viability, T/C [%]": 82.6}
{"compound": "COc1cc(Nc2ncc3c(n2)-c2ccc(Cl)cc2C(c2c(F)cccc2OC)=NC3)ccc1C(=O)O + CC1OCC2(CCN(c3cnc(Sc4ccnc(N)c4Cl)c(N)n3)CC2)C1N", "target-or-test-system": "KRAS-mutant PDC multicell tumor spheroid viability", "viability, T/C [%]": 41}
{"compound": "Cn1ncnc1[C@H]1c2n[nH]c(=O)c3cc(F)cc(c23)N[C@@H]1c1ccc(F)cc1 + COc1cc2nc(C)nc(NC(C)c3cc(N)cc(C(F)(F)F)c3)c2cc1OC1CCOC1", "target-or-test-system": "KRAS-mutant PDC multicell tumor spheroid viability", "viability, T/C [%]": 67.4}
{"compound": "COC(=O)c1ccc2c(C(=Nc3ccc(N(C)C(=O)CN4CCN(C)CC4)cc3)c3ccccc3)c(O)[nH]c2c1 + C=CC(=O)N1CCN(c2nc(=O)n(-c3c(C)ccnc3C(C)C)c3nc(-c4c(O)cccc4F)c(F)cc23)C(C)C1", "target-or-test-system": "KRAS-mutant PDC multicell tumor spheroid viability", "viability, T/C [%]": 102}
{"compound": "O=C(c1cc(Cc2n[nH]c(=O)c3ccccc23)ccc1F)N1CCN(C(=O)C2CC2)CC1 + C=CC(=O)N1CCN(c2nc(OCC3CCCN3C)nc3c2CCN(c2cccc4cccc(C)c24)C3)CC1CC#N", "target-or-test-system": "KRAS-mutant PDC multicell tumor spheroid viability", "viability, T/C [%]": 94.2}
{"compound": "CC(=O)OC12COC1CC(O)C1(C)C(=O)C(O)C3=C(C)C(OC(=O)C(O)C(NC(=O)OC(C)(C)C)c4ccccc4)CC(O)(C(OC(=O)c4ccccc4)C21)C3(C)C (stereo not drawn) + COc1cc2nc(C)nc(NC(C)c3cc(N)cc(C(F)(F)F)c3)c2cc1OC1CCOC1", "target-or-test-system": "KRAS-mutant PDC multicell tumor spheroid viability", "viability, T/C [%]": 14.1}
{"compound": "CC(=O)OC12COC1CC(O)C1(C)C(=O)C(O)C3=C(C)C(OC(=O)C(O)C(NC(=O)OC(C)(C)C)c4ccccc4)CC(O)(C(OC(=O)c4ccccc4)C21)C3(C)C (stereo not drawn) + C=CC(=O)N1CCN(c2nc(=O)n(-c3c(C)ccnc3C(C)C)c3nc(-c4c(O)cccc4F)c(F)cc23)C(C)C1", "target-or-test-system": "KRAS-mutant PDC multicell tumor spheroid viability", "viability, T/C [%]": 13.3}
{"compound": "COc1cc2nccc(Oc3ccc(NC(=O)C4(C(=O)Nc5ccc(F)cc5)CC4)cc3)c2cc1OC + C=CC(=O)N1CCN(c2nc(=O)n(-c3c(C)ccnc3C(C)C)c3nc(-c4c(O)cccc4F)c(F)cc23)C(C)C1", "target-or-test-system": "KRAS-mutant PDC multicell tumor spheroid viability", "viability, T/C [%]": 107}
{"compound": "COC(=O)c1ccc2c(C(=Nc3ccc(N(C)C(=O)CN4CCN(C)CC4)cc3)c3ccccc3)c(O)[nH]c2c1 + COc1cc2nc(C)nc(NC(C)c3cc(N)cc(C(F)(F)F)c3)c2cc1OC1CCOC1", "target-or-test-system": "KRAS-mutant PDC multicell tumor spheroid viability", "viability, T/C [%]": 96.5}
{"compound": "CC1OCC2(CCN(c3cnc(Sc4ccnc(N)c4Cl)c(N)n3)CC2)C1N (stereo not drawn) + COc1cc2nc(C)nc(NC(C)c3cc(N)cc(C(F)(F)F)c3)c2cc1OC1CCOC1", "target-or-test-system": "KRAS-mutant PDC multicell tumor spheroid viability", "viability, T/C [%]": 82.3}
{"compound": "COC(=O)c1ccc2c(C(=Nc3ccc(N(C)C(=O)CN4CCN(C)CC4)cc3)c3ccccc3)c(O)[nH]c2c1 + CC1OCC2(CCN(c3cnc(Sc4ccnc(N)c4Cl)c(N)n3)CC2)C1N", "target-or-test-system": "KRAS-mutant PDC multicell tumor spheroid viability", "viability, T/C [%]": 66.3}
{"compound": "CC(=O)OC12COC1CC(O)C1(C)C(=O)C(O)C3=C(C)C(OC(=O)C(O)C(NC(=O)OC(C)(C)C)c4ccccc4)CC(O)(C(OC(=O)c4ccccc4)C21)C3(C)C (stereo not drawn) + CC1OCC2(CCN(c3cnc(Sc4ccnc(N)c4Cl)c(N)n3)CC2)C1N", "target-or-test-system": "KRAS-mutant PDC multicell tumor spheroid viability", "viability, T/C [%]": 15.3}
{"compound": "CC1(C)CCC(CN2CCN(c3ccc(C(=O)NS(=O)(=O)c4ccc(NCC5CCOCC5)c([N+](=O)[O-])c4)c(Oc4cnc5[nH]ccc5c4)c3)CC2)=C(c2ccc(Cl)cc2)C1 + C=CC(=O)N1CCN(c2nc(OCC3CCCN3C)nc3c2CCN(c2cccc4cccc(C)c24)C3)CC1CC#N", "target-or-test-system": "KRAS-mutant PDC multicell tumor spheroid viability", "viability, T/C [%]": 88.5}
{"compound": "CCNC(=O)CC1N=C(c2ccc(Cl)cc2)c2cc(OC)ccc2-n2c(C)nnc21 (stereo not drawn) + C=CC(=O)N1CCN(c2nc(=O)n(-c3c(C)ccnc3C(C)C)c3nc(-c4c(O)cccc4F)c(F)cc23)C(C)C1", "target-or-test-system": "KRAS-mutant PDC multicell tumor spheroid viability", "viability, T/C [%]": 119}
